Entries annotated with measured total protein half-life in vivo
- measurement notes: total protein half-life in vivo (active degradation + dilution); higher = more stable protein
- experimental parameters: E. coli NCM3722 delta-smpB; growth: N-lim chemostat; doubling time 6 h

sequence data	total protein half-life in vivo / h
MHCPFCFAVDTKVIDSRLVGEGSSVRRRRQCLVCNERFTTFEVAELVMPRVVKSNDVREPFNEEKLRSGMLRALEKRPVSSDDVEMAINHIKSQLRATGEREVPSKMIGNLVMEQLKKLDKVAYIRFASVYRSFEDIKEFGEEIARLED [P0A8D0]	4
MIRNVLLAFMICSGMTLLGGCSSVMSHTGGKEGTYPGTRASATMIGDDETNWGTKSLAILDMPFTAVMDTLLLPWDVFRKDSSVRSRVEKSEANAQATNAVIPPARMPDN [P0ADM4]	4.43
MKVMRTTVATVVAATLSMSAFSVFAEASLTGAGATFPAPVYAKWADTYQKETGNKVNYQGIGSSGGVKQIIANTVDFGASDAPLSDEKLAQEGLFQFPTVIGGVVLAVNIPGLKSGELVLDGKTLGDIYLGKIKKWDDEAIAKLNPGLKLPSQNIAVVRRADGSGTSFVFTSYLAKVNEEWKNNVGTGSTVKWPIGLGGKGNDGIAAFVQRLPGAIGYVEYAYAKQNNLAYTKLISADGKPVSPTEENFANAAKGADWSKTFAQDLTNQKGEDAWPITSTTFILIHKDQKKPEQGTEVLKFFDWAYKTGAKQANDLDYASLPDSVVEQVRAAWKTNIKDSSGKPLY [P0AG82]	6.08
MRLGTFHKKKRFYINKIKINFLSFLFRNKINNQITDPAQVKSCLIIHDNNKLGDLIVLSSIYRELYSKGVKITLLTNRKGGEFLSNNKNIFEFCIKESTGFLEMLTLCKHLRDLQFDIVLDPFETMPSFKHSLILSSLKDSYILGFDHWYKRYYSFYHPHDECLKEHMSTRAIEILKHIYGEGKFSTNYDLHLPVDVEDKIKEFIGDTRIVIINPLGAKKICRLTFEQIKVIYQEVKTHFENYRIIFTGLPQDLLTIPILEIETLPFDEFIYTVALTKYSDFVISVDTALVHIAAAYHKPTLAFYPNSRTPEYPSHLIWSPNHHKSIQIVSPTYTVKDIDTETLTNSVKRLSCIDKK	5.44
MQSVDVAIVGGGMVGLAVACGLQGSGLRVAVLEQRVQEPLAANAPPQLRVSAINAASEKLLTRLGVWQDILSRRASCYHGMEVWDKDSFGHISFDDQSMGYSHLGHIVENSVIHYALWNKAHQSSDITLLAPAELQQVAWGENETFLTLKDGSMLTARLVIGADGANSWLRNKADIPLTFWDYQHHALVATIRTEEPHDAVARQVFHGEGILAFLPLSDPHLCSIVWSLSPEEAQRMQQASEDEFNRALNIAFDNRLGLCKVESARQVFPLTGRYARQFASHRLALVGDAAHTIHPLAGQGVNLGFMDAAELIAELKRLHRQGKDIGQYIYLRRYERSRKHSAALMLAGMQGFRDLFSGTNPAKKLLRDIGLKLADTLPGVKPQLIRQAMGLNDLPEWLR	4.06
MSNTDASGEKRVTGTSERREQIIQRLRQQGSVQVNDLSALYGVSTVTIRNDLAFLEKQGIAVRAYGGALICDSTTPSVEPSVEDKSALNTAMKRSVAKAAVELIQPGHRVILDSGTTTFEIARLMRKHTDVIAMTNGMNVANALLEAEGVELLMTGGHLRRQSQSFYGDQAEQSLQNYHFDMLFLGVDAIDLERGVSTHNEDEARLNRRMCEVAERIIVVTDSSKFNRSSLHKIIDTQRIDMIIVDEGIPADSLEGLRKAGVEVILVGE [P0ACK2]	5.04
MQNTTHDNVILELTVRNHPGVMTHVCGLFARRAFNVEGILCLPIQDSDKSHIWLLVNDDQRLEQMISQIDKLEDVVKVQRNQSDPTMFNKIAVFFQ [P0ADF8]	1.62
MNLQHHFLIAMPALQDPIFRRSVVYICEHNTNGAMGIIVNKPLENLKIEGILEKLKITPEPRDESIRLDKPVMLGGPLAEDRGFILHTPPSNFASSIRISDNTVMTTSRDVLETLGTDKQPSDVLVALGYASWEKGQLEQEILDNAWLTAPADLNILFKTPIADRWREAAKLIGVDILTMPGVAGHA [P0A8W5]	4.03
MKGGKRVQTARPNRINGEIRAQEVRLTGLEGEQLGIVSLREALEKAEEAGVDLVEISPNAEPPVCRIMDYGKFLYEKSKSSKEQKKKQKVIQVKEIKFRPGTDEGDYQVKLRSLIRFLEEGDKAKITLRFRGREMAHQQIGMEVLNRVKDDLQELAVVESFPTKIEGRQMIMVLAPKKKQ [P0A707]	5.12
MKIISKMLVGALALAVTNVYAAELMTKAEFEKVESQYEKIGDISTSNEMSTADAKEDLIKKADEKGADVLVLTSGQTDNKIHGTANIYKKK	4.12
MPKLILASTSPWRRALLEKLQISFECAAPEVDETPRSDESPRQLVLRLAQEKAQSLASRYPDHLIIGSDQVCVLDGEITGKPLTEENARLQLRKASGNIVTFYTGLALFNSANGHLQTEVEPFDVHFRHLSEAEIDNYVRKEHPLHCAGSFKSEGFGITLFERLEGRDPNTLVGLPLIALCQMLRREGKNPLMG [P0A729]	3.68
MLNIVLYEPEIPPNTGNIIRLCANTGFRLHIIEPMGFAWDDKRLRRAGLDYHEFTAVTRHHDYRAFLEAENPQRLFALTTKGTPAHSAVSYQDGDYLMFGPETRGLPASILDALPAEQKIRIPMVPDSRSMNLSNAVSVVVYEAWRQLGYPGAVLRD [P0AGJ7]	4.82
MKVAKDLVVSLAYQVRTEDGVLVDESPVSAPLDYLHGHGSLISGLETALEGHEVGDKFDVAVGANDAYGQYDENLVQRVPKDVFMGVDELQVGMRFLAETDQGPVPVEITAVEDDHVVVDGNHMLAGQNLKFNVEVVAIREATEEELAHGHVHGAHDHHHDHDHDGCCGGHGHDHGHEHGGEGCCGGKGNGGCGCH [P0A9K9]	3.38

Taken from the supplement of paper PMC11246515.
